Listing: % beta-antiparallel of selected molecules
experiment-notes: CD secondary structure of GOLPH3 proteins (BestSel fits)
Format: physicochemical, human
condition-info: 10 μM, 100 mM NaCl, 50 mM Tris pH 7.4, 1 mM TCEP, 20 °C
Description: Supplemental Material for Theodoropoulou, Nasrallah, et al 2026 Isothermal titration calorimetry […] Circular Dichroism Spectroscopy Circular Dichroism Spectra of GOLPH3 proteins (at 10 μM in 100 mM NaCl, 50 mM Tris pH 7.4 and 1 mM TCEP) were collected with a Chirascan V100 (AppliedPhotophysics), using a 1 mm path length cuvette, at 20 °C, in the 200-260 nm range. Thermal denaturation experiments […] every 1 °C, with a temperature ramp speed of 1 °C/min and an equilibration time of […]

# molecule, % beta-antiparallel [%]
rows = [
    ("D247R: recombinant GOLPH3 mutant D247R (protein, UniProt Q9H4A6 1-298, looked up, variant D247R) Golgi phosphoprotein 3: MTSLTQRSSGLVQRRTEASRNAADKERAAGGGAGSSEDDAQSRRDEQDDDDKGDSKETRLTLMEEVLLLGLKDREGYTSFWNDCISSGLRGCMLIELALRGRLQLEACGMRRKSLLTRKVICKSDAPTGDVLLDEALKHVKETQPPETVQNWIELLSGETWNPLKLHYQLRNVRERLAKNLVEKGVLTTEKQNFLLFDMTTHPLTNNNIKQRLIKKVQEAVLDKWVNDPHRMDRRLLALIYLAHASRVLENAFAPLLDEQYDLATKRVRQLLDLDPEVECLKANTNEVLWAVVAAFTK", 0),
    ("D247A: GOLPH3 mutant D247A; recombinant in biophysics, transfected construct in cells (protein, UniProt Q9H4A6 1-298, looked up, variant D247A) Golgi phosphoprotein 3: MTSLTQRSSGLVQRRTEASRNAADKERAAGGGAGSSEDDAQSRRDEQDDDDKGDSKETRLTLMEEVLLLGLKDREGYTSFWNDCISSGLRGCMLIELALRGRLQLEACGMRRKSLLTRKVICKSDAPTGDVLLDEALKHVKETQPPETVQNWIELLSGETWNPLKLHYQLRNVRERLAKNLVEKGVLTTEKQNFLLFDMTTHPLTNNNIKQRLIKKVQEAVLDKWVNDPHRMDRRLLALIYLAHASAVLENAFAPLLDEQYDLATKRVRQLLDLDPEVECLKANTNEVLWAVVAAFTK", 8),
    ("D247R/D258R/D262R: recombinant GOLPH3 triple mutant D247R/D258R/D262R (protein, UniProt Q9H4A6 1-298, looked up, variant D247R D258R D262R) Golgi phosphoprotein 3: MTSLTQRSSGLVQRRTEASRNAADKERAAGGGAGSSEDDAQSRRDEQDDDDKGDSKETRLTLMEEVLLLGLKDREGYTSFWNDCISSGLRGCMLIELALRGRLQLEACGMRRKSLLTRKVICKSDAPTGDVLLDEALKHVKETQPPETVQNWIELLSGETWNPLKLHYQLRNVRERLAKNLVEKGVLTTEKQNFLLFDMTTHPLTNNNIKQRLIKKVQEAVLDKWVNDPHRMDRRLLALIYLAHASRVLENAFAPLLREQYRLATKRVRQLLDLDPEVECLKANTNEVLWAVVAAFTK", 7),
]
